Assay: nonspecific potentiation of DAMGO calcium response – cell-based, HEK293 mu-opioid receptor line, counter-screen for TRPC4 allosteric potentiator project, confirmation (AID 449724);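 also: HEK293 cells carrying mu-opioid receptor only with no TRPC4 channel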
Details: HEK293 mu-opioid receptor cells, Fluo-4 calcium flux, at 10 µM, compound added before EC20 DAMGO stimulus
Calls of active or inactive are those of the source.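 The calls were made as follows: active = calcium signal rise more than 3 SD above the low-dose agonist control mean, in both duplicate plates and the primary screen; inactive = the rest.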
Please answer using one outcome listed in active, inactive

Per the assay record, what outcome was assigned to CCOC(=O)C1=NN(c2ccccc2C)C2=NC(C)=C(C(=O)OC)C(c3cccc(OC)c3)N12 (configuration not stated) ?
inactive

Per the assay record, what outcome was assigned to `Cc1cccc(/C=N/NC(=O)c2cccc(Cl)c2)n1` ?
inactive

Per the assay record, what outcome was assigned to CCOC(=O)C1=C(C)N(c2ccccc2)C(=O)NC1c1cccc([N+](=O)[O-])c1 (configuration not stated) ?
inactive

Per the assay record, what outcome was assigned to `CCOc1ccc(-n2c(C)cc(/C=C3/C(=N)N4C(=NC3=O)SN=C4S(C)(=O)=O)c2C)cc1` ?
inactive

Per the assay record, what outcome was assigned to CCOC(=O)c1c(NC(=O)C(C)Sc2nnc(C)c(=O)[nH]2)sc2c1CCCC2 (configuration not stated) ?
inactive

Per the assay record, what outcome was assigned to `CCN1/C(=C\c2ccc3cc(C)ccc3[n+]2CC)Sc2cc(C)c(C)cc21` ?
active

Per the assay record, what outcome was assigned to `CN(C(=O)COC(=O)c1sc2ccccc2c1Cl)C1CCCCC1` ?
inactive

Per the assay record, what outcome was assigned to CCCCC(CC)C(=O)Nc1ncc([N+](=O)[O-])s1 (configuration not stated) ?
inactive

Per the assay record, what outcome was assigned to `COc1cc(CN2CCC(CO)(CCOc3ccccc3)CC2)cc(OC)c1` ?
inactive

Per the assay record, what outcome was assigned to `CCCCn1c(NC(=O)c2ccccc2)nc2ccccc21` ?
inactive

Per the assay record, what outcome was assigned to `CCCCC(=O)N(c1ccc(C(=O)O)cc1)c1nc(-c2ccc(Cl)cc2)c(CC)s1` ?
inactive

Per the assay record, what outcome was assigned to C=CCc1ccccc1OCC(O)CN1CCN(c2ccccc2OC)CC1 (configuration not stated) ?
inactive

Per the assay record, what outcome was assigned to `CC(C)Oc1cccc(C(=O)NC(=S)Nc2ccc(N3CCN(C)CC3)cc2)c1` ?
inactive

Per the assay record, what outcome was assigned to `C=C(C)Cn1c(SCC)nc2ccccc2c1=O` ?
inactive

Per the assay record, what outcome was assigned to Cc1ccc(C(CNS(=O)(=O)c2ccc([N+](=O)[O-])cc2)N2CCN(C)CC2)cc1 (configuration not stated) ?
inactive

Per the assay record, what outcome was assigned to `N=c1oc2ccc(Cl)cc2cc1C(=O)NC1CCCCCC1` ?
inactive

Per the assay record, what outcome was assigned to CC1=NN(C(=O)COc2ccc(C)c(C)c2)C(O)(c2ccc(Cl)cc2)C1 (configuration not stated) ?
inactive

Per the assay record, what outcome was assigned to `COc1ccc(-c2n[nH]c(C)c2-c2ccccc2OC)c(O)c1` ?
inactive

Per the assay record, what outcome was assigned to `Cc1nc2ccccc2n1CCOc1ccc(F)cc1` ?
inactive

Per the assay record, what outcome was assigned to `COCCSc1ccccc1C(=O)N1CCC(Cc2ccccc2)CC1` ?
inactive

Per the assay record, what outcome was assigned to `CN(C)CCCn1c(=O)n(CCc2ccccc2)c(=O)c2c3c(sc21)CCCCC3` ?
inactive

Per the assay record, what outcome was assigned to NC(=O)C1CCCN(CCc2ccccc2)C1 (configuration not stated) ?
inactive

* * *

Tested on: transient receptor potential cation channel C4 beta (TRPC4), mouse
Assay: TRPC4 cation channel opening, second retest – cell-based, second round, Fluo4, HEK293 TRPC4beta/mu-opioid, 1 µM, confirmation (AID 2461)
Conditions: Fluo4 calcium fluorescence, at 1 µM
Calls of active or inactive are those of the source.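 Rule for the calls: active = primary screen active and over 50% activation in each of two duplicate runs; inactive = the rest.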
Please answer using one outcome listed in active, inactive

Per the assay record, what outcome was assigned to `COc1ccccc1CC(=O)N1CCN(S(=O)(=O)c2ccccc2)CC1` ?
inactive

Per the assay record, what outcome was assigned to `O=C1CC2(CCN(S(=O)(=O)c3ccccc3F)CC2)Oc2ccccc21` ?
inactive

Per the assay record, what outcome was assigned to CCOC(=O)c1c(NC(=O)C(C)Sc2nnc(C)c(=O)[nH]2)sc2c1CCCC2 (stereo not drawn) ?
inactive

Per the assay record, what outcome was assigned to `CCOCCCNCc1ccc(OCc2ccccc2Cl)cc1` ?
inactive

Per the assay record, what outcome was assigned to `O=C(CCc1ccccc1)Nc1ccnn1C1CCN(C/C=C/c2ccccc2)CC1` ?
inactive

Per the assay record, what outcome was assigned to `Cc1cc(OCC(=O)N2CCCC2)cc(C)c1Cl` ?
inactive

Per the assay record, what outcome was assigned to `Cc1ccc(-c2nn(-c3cccc(F)c3)cc2CNCc2cccnc2)o1` ?
inactive

Per the assay record, what outcome was assigned to `O=S(=O)(Cc1ccccc1)N1CCC(c2nc(-c3cccs3)no2)CC1` ?
inactive

Per the assay record, what outcome was assigned to `Cc1csc2c(N3CCN(C(=S)Nc4ccc(C(F)(F)F)cc4)CC3)ncnc12` ?
active

Per the assay record, what outcome was assigned to `COCCn1c(SCC(=O)c2ccccc2)nc2ccccc2c1=O` ?
inactive

Per the assay record, what outcome was assigned to CCCCCOc1ccc2oc(=O)c3c(c2c1)CCCN3C(=O)CN1CCCC(C(=O)OCC)C1 (stereo not drawn) ?
inactive

Per the assay record, what outcome was assigned to CC1CCCCC1NC(=O)c1cc2ccccc2o1 (stereo not drawn) ?
inactive

Per the assay record, what outcome was assigned to `COC(=O)c1ccc(N2CCN(C)CC2)c(NC(=O)c2ccc(Br)o2)c1` ?
inactive

Per the assay record, what outcome was assigned to COc1ccccc1Nc1nc(NCC2CCCO2)c2ccccc2n1 (stereo not drawn) ?
inactive

Per the assay record, what outcome was assigned to COc1ccc(C(CNC(=O)CCOc2ccccc2)N(C)C)cc1 (stereo not drawn) ?
active

Per the assay record, what outcome was assigned to `Fc1ccc(-n2cc(CNCCc3cccnc3)c(-c3ccccc3Cl)n2)cc1` ?
inactive

Per the assay record, what outcome was assigned to CC1CCc2c(sc(/N=C/N(C)C)c2C#N)C1 (stereo not drawn) ?
inactive

Per the assay record, what outcome was assigned to `O=C(c1cc2cc(Br)cc(Br)c2oc1=O)N1CCCC1` ?
inactive

Per the assay record, what outcome was assigned to COc1ccccc1N(C(=O)c1snc(C(N)=O)c1N)C(C(=O)NCc1ccccc1)c1ccc(O)cc1 (stereo not drawn) ?
inactive

Per the assay record, what outcome was assigned to COc1cccc(NC(=O)CCC(=O)N2CC(C)Oc3ccc(C)cc32)c1 (stereo not drawn) ?
inactive

Per the assay record, what outcome was assigned to `Cc1nn(-c2ccccc2)c2nc(-c3ccccc3)cc(C(=O)N3CCOCC3)c12` ?
inactive

Per the assay record, what outcome was assigned to CCN(CC)C(=O)C1CCCN(Cc2cccc(Oc3ccccc3)c2)C1 (stereo not drawn) ?
inactive

Per the assay record, what outcome was assigned to `O=C(Nc1cccc(Cl)c1)c1cnn2cccnc12` ?
inactive

* * *

Target: Short transient receptor potential channel 4 (Mus musculus) (UniProt Q9QUQ5)
Sequence (Q9QUQ5 whole entry, looked up): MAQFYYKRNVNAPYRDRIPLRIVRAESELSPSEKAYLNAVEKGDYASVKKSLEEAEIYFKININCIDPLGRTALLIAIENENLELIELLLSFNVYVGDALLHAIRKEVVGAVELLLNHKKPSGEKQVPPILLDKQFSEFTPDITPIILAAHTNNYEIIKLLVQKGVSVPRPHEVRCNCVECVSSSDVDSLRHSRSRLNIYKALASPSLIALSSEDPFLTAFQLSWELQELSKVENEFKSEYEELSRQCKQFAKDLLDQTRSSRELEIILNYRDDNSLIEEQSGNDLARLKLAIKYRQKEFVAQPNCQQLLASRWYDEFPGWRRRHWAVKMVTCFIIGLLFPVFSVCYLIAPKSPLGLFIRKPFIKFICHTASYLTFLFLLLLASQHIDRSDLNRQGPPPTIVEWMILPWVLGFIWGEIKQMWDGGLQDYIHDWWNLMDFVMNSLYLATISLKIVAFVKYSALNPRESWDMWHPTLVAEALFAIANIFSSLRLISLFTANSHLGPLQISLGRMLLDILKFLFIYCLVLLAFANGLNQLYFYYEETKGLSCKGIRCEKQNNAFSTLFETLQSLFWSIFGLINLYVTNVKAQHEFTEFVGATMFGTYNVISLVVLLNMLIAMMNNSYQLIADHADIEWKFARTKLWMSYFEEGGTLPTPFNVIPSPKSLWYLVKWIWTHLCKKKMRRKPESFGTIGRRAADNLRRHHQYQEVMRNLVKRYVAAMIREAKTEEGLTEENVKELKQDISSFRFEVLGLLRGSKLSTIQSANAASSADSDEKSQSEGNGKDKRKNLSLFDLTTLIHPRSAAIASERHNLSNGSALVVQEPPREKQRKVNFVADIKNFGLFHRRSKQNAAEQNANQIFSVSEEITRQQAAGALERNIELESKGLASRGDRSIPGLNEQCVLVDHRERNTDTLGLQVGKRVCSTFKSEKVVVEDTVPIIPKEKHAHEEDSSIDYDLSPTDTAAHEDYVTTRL
Experiment: blockers of DAMGO-evoked TRPC4 calcium flux – cell-based, Fluo4, HEK293 TRPC4beta/mu-opioid, confirmation (AID 2636)
Settings: at 10 µM
Calls of active or inactive are those of the source.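 The calls were made as follows: active = calcium signal cut by more than 3 SD below the full-agonist control yet still positive, in both repeats and the earlier primary screen; inactive = the rest.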
Please answer using one outcome listed in YES (active), NO (inactive)

Per the assay record, what outcome was assigned to CC(C)Cn1c(CN2CCN(C)C(CCO)C2)nc2ccccc21 (stereo unspecified) ?
NO

Per the assay record, what outcome was assigned to `CCCCN(Cc1ccccc1)C(=O)C1CCN(Cc2sccc2C)CC1` ?
YES

Per the assay record, what outcome was assigned to `CCCOc1ccc(Br)cc1/C=N/O` ?
NO

Per the assay record, what outcome was assigned to `COc1ccc(CNC(=O)CN(C)Cc2ccccc2F)cc1OC` ?
YES

Per the assay record, what outcome was assigned to `CCOC(=O)C1(CC2CC2)CCN(Cc2cc(Cl)c(O)c(OC)c2)CC1` ?
YES

Per the assay record, what outcome was assigned to `OCC1(CCc2ccccc2)CCN(Cc2cccn2-c2cccnc2)CC1` ?
NO

Per the assay record, what outcome was assigned to `Cc1cc(Br)cc(C)c1OCCCCN(C)C` ?
NO

Per the assay record, what outcome was assigned to `CCOc1ccc(-c2cc(NC(=O)c3c(F)cccc3F)c(C(=O)O)s2)cc1` ?
YES

Per the assay record, what outcome was assigned to `COC(=O)c1cccc(NC(=S)Nc2cccc(Cl)c2Cl)c1` ?
YES

Per the assay record, what outcome was assigned to `COc1ccc(OC)c(Nc2cc(C)nc3ccc(C)cc23)c1` ?
YES

Per the assay record, what outcome was assigned to `CCCCn1c(SCC(=O)N2c3ccccc3Sc3ccccc32)nc2c1c(=O)n(C)c(=O)n2C` ?
NO

* * *

System: TRPC4 beta (transient receptor potential cation channel C4), mouse
Test: TRPC4 cation channel opening, retest – cell-based, Fluo4 calcium, HEK293 TRPC4beta/mu-opioid, duplicates, 10 µM, confirmation (AID 2426)
Details: Fluo4 calcium fluorescence, at 10 µM
The source made the active and inactive calls.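 How the source made its calls: active means fluorescence ratio normalized to control raised more than 50% in primary screen plus both repeat runs; inactive means the rest.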
Please answer using one outcome listed in active, inactive

Per the assay record, what outcome was assigned to `CC(C)CCc1noc(CN2CCN(c3ccc(Cl)cn3)CC2)n1` ?
inactive

Per the assay record, what outcome was assigned to `Cc1cc(=O)oc2cc(NC(=S)NCc3ccccn3)ccc12` ?
inactive

Per the assay record, what outcome was assigned to N=c1c(C(=O)NCC2CCCO2)cc2c(=O)n3ccccc3nc2n1Cc1ccccc1Cl (stereo unspecified) ?
inactive

Per the assay record, what outcome was assigned to `CC(C)n1c(NCc2c[nH]c3ccccc23)nc2ccccc21` ?
inactive

Per the assay record, what outcome was assigned to `Cc1ccc(N2CCN(C(=O)c3ccccc3F)CC2)c(C)c1` ?
inactive

Per the assay record, what outcome was assigned to `NC(N)=NN=C1CCCCCCCCCCC1` ?
active

Per the assay record, what outcome was assigned to `Nc1c(C(=O)c2ccccc2)sc2nsc(SCCN3CCCC3)c12` ?
active

Per the assay record, what outcome was assigned to `Cc1cc(N2CCN(C)CC2)n2cc(-c3ccc(F)cc3)nc2n1` ?
inactive

Per the assay record, what outcome was assigned to `CN1CCN(c2ccc(Cl)cc2NC(=O)/C=C/c2cccc(F)c2)CC1` ?
inactive

Per the assay record, what outcome was assigned to `CCCCc1nc(SCCOC)c2c(=O)n(C)c(=O)n(C)c2n1` ?
inactive

Per the assay record, what outcome was assigned to `COc1cccc(N2CC(O)=C(c3nc4ccccc4c(=O)[nH]3)C2=N)c1` ?
inactive
